B1: CPEB3 Ribozyme (parent)
chain: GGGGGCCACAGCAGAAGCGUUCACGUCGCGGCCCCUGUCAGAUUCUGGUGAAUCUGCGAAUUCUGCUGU

Variants of: B1
MEASUREMENT PROTOCOL: self-cleavage, relative activity (ratio to wild type); higher = more cleavage; co-transcriptional
Mark MET for reported self-cleavage of 0.9 or greater; mark NOT MET for anything smaller.

Solved entries (count: 6):
VARIANT DESCRIPTOR	QUALITATIVE LABEL
A40C U44G	NOT MET
G25C C29A	NOT MET
U36C	MET
C18G A42C	NOT MET
A42C G48C	NOT MET
G41A C45A	NOT MET

Kindly determine if self-cleavage recorded for G1U U26A is above or exactly 0.9.
NOT MET
